biological target: mouse NPY Y5 receptor (Mus musculus, UniProt O70342)
Sequence (O70342 whole entry): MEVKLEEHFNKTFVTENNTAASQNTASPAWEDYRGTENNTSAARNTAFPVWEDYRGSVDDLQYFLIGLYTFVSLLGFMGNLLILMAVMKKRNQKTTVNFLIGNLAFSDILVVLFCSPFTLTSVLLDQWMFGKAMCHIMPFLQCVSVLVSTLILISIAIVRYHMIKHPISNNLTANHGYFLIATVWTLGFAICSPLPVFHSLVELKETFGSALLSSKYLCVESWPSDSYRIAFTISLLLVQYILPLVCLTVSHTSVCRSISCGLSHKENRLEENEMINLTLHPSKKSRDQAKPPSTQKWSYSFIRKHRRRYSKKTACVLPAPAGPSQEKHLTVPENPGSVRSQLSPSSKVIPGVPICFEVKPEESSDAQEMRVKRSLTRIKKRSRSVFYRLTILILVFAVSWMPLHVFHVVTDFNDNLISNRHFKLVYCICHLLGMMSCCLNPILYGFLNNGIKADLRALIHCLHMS
pIC50: −log10 of the molar value.
QUANTITY NAME: pIC50

See these solved cases before continuing.
N#Cc1ccccc1C(=O)N1CCC(c2nc(-c3ccc(Cl)c(Cl)c3)c[nH]2)CC1	9.92
CC(C)n1cccc1C(=O)N1CCC(C(=O)Nc2cccc(-c3ccccc3F)c2)CC1	8.84
N#Cc1ccccc1C(=O)N1CCC(c2nc3cc(-c4ccccc4F)ccc3[nH]2)CC1	9.72

1. N#Cc1ccccc1C(=O)N1CCC(C(=O)Nc2cccc(Oc3ccccc3F)c2)CC1
2. C[C@@H]1CC(F)(F)CN1C(=O)N1CCC(C(=O)Nc2cccc(-c3ccccc3F)c2)CC1
Endpoint returns the identifier whose pIC50 is numerically larger, either 1 or 2 . Choose, then provide that item's label. 1
(1: 9.55, 2: 8.81)

A. N#Cc1ccc(F)cc1C(=O)N1CCC(C(=O)Nc2cccc(-c3ccccc3F)c2)CC1
B. N#Cc1ccc(F)cc1C(=O)N1CCC(C(=O)Nc2cccc(-c3ncccn3)c2)CC1
Endpoint returns the identifier whose pIC50 is numerically larger, either A or B . Choose, then provide that item's label. A
